protocol-description: Percentage unbound in human plasma
Type: ADME, cell-free
measured-endpoint: fraction unbound

COC[C@H](C)Oc1cc(O[C@@H](C)Cc2ccccc2)cc(C(=O)Nc2ccc(C(=O)O)cn2)c1
0.0044
COC[C@H](C)Oc1cc(Oc2cc(F)cc(F)c2)cc(C(=O)Nc2ccc(C(=O)O)cn2)c1
0.0055

====

protocol-description: Half life in rat
Type: ADME, organism-based
condition-summary: in vivo
measured-endpoint: half-life (h)

(a) COC[C@H](C)Oc1cc(Oc2cc(F)cc(F)c2)cc(C(=O)Nc2ccc(C(=O)O)cn2)c1
(b) COC[C@H](C)Oc1cc(O[C@@H](C)Cc2ccccc2)cc(C(=O)Nc2ccc(C(=O)O)cn2)c1
Ask: Which of these two has the smaller recorded half-life: a or b ? Identify your selection by its label.
Result: b

====

protocol-description: in vitro
condition-summary: rat, plasma
measured-endpoint: fraction unbound

COC[C@H](C)Oc1cc(Oc2ccc(OC)cc2)cc(C(=O)Nc2ccc(C(=O)O)cn2)c1
0.0069
CC(C)Oc1cc(O[C@@H](C)Cc2ccccc2)cc(C(=O)Nc2ccc(C(=O)O)cn2)c1
0.0023
C[C@@H](Cc1ccccc1)Oc1cc(OC2CCOCC2)cc(C(=O)Nc2ccc(C(=O)O)cn2)c1
0.0109

(I) COC[C@H](C)Oc1cc(Oc2cccc(N(C)C)c2)cc(C(=O)Nc2ccc(C(=O)O)cn2)c1
(II) COC[C@H](C)Oc1cc(Oc2cccc(Cl)c2)cc(C(=O)Nc2ccc(C(=O)O)cn2)c1
Ask: Looking only at measured fraction unbound, which entry is lower, I or II ? Kindly state the label of the option you pick.
Result: II
(II: 0.0016, I: 0.0122)

====

protocol-description: Percentage unbound in dog plasma
Format: ADME, cell-free, Canis lupus familiaris
measured-endpoint: fraction unbound

COC[C@H](C)Oc1cc(O[C@@H](C)Cc2ccccc2)cc(C(=O)Nc2ccc(C(=O)O)cn2)c1
0.0146
COC[C@H](C)Oc1cc(Oc2cc(F)cc(F)c2)cc(C(=O)Nc2ccc(C(=O)O)cn2)c1
0.0159

====

protocol-description: Bioavailability in rat
Type: ADME, organism-based
condition-summary: in vivo
measured-endpoint: bioavailability (%)
Please reply with the bare figure in % and do not write the unit itself.

Ask: Return reported bioavailability. Input molecule: COC[C@H](C)Oc1cc(Oc2cc(F)cc(F)c2)cc(C(=O)Nc2ccc(C(=O)O)cn2)c1
Result: 97

====

protocol-description: in vitro
condition-summary: rat, plasma
measured-endpoint: fraction unbound

Example entries begin here.
COC[C@H](C)Oc1cc(O[C@@H](C)Cc2ccccc2OC)cc(C(=O)Nc2ccc(C(=O)O)cn2)c1
0.0042
COCC(C)(C)Oc1cc(O[C@@H](C)Cc2ccccc2)cc(C(=O)Nc2ccc(C(=O)O)cn2)c1
0.0042
COC[C@H](C)Oc1cc(O[C@@H](C)Cc2ccccc2)cc(C(=O)Nc2ccc(C(=O)O)cn2)c1
0.004
COC[C@H](C)Oc1cc(O[C@@H](C)Cc2ccc(F)cc2)cc(C(=O)Nc2ccc(C(=O)O)cn2)c1
0.0025
CC(C)Oc1cc(Oc2ccccc2)cc(C(=O)Nc2ccc(C(=O)O)cn2)c1
0.0021
CC(C)Oc1cc(OC2Cc3ccccc3C2)cc(C(=O)Nc2ccc(C(=O)O)cn2)c1
0.001

(1) COC[C@H](C)Oc1cc(Oc2ccc(Cl)cc2)cc(C(=O)Nc2ccc(C(=O)O)cn2)c1
(2) COC[C@H](C)Oc1cc(O[C@@H](C)Cc2ccc(Cl)o2)cc(C(=O)Nc2ccc(C(=O)O)cn2)c1
(3) COC[C@H](C)Oc1cc(Oc2ccc(S(C)(=O)=O)cc2)cc(C(=O)Nc2ccc(C(=O)O)cn2)c1
Ask: Order the items by recorded fraction unbound; the first position goes to the largest value. Sort the labels as requested; that list is your answer.
Result: 3, 2, 1
